target-of-assay: human CPT1A (Homo sapiens, UniProt P50416)
Construct: made in house; host or cells: Saccharomyces cerevisiae (pESC-trp) or cultured mammalian cells (pCDNA3.1); mitochondrial extract
Sequence (P50416 whole entry): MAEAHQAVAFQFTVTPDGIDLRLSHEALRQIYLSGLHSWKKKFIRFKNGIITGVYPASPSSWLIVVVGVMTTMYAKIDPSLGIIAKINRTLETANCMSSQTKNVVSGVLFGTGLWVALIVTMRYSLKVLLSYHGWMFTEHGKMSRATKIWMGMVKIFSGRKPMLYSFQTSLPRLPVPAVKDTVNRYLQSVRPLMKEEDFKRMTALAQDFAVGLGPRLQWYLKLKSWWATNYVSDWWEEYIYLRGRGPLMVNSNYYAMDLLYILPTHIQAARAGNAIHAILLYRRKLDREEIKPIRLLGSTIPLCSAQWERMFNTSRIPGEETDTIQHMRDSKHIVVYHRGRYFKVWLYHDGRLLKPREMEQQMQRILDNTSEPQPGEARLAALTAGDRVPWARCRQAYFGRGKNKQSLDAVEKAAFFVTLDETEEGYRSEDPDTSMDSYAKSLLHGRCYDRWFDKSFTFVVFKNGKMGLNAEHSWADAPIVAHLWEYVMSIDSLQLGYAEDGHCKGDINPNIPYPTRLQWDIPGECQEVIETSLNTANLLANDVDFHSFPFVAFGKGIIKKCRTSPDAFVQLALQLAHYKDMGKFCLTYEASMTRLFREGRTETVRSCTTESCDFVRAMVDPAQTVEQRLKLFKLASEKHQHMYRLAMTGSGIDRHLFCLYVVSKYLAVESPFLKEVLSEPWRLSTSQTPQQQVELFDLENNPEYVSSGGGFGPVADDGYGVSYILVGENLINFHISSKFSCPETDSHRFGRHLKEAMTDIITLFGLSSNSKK
protocol-text: Human CPT1A LC/MS assay
Type: biochemical
condition-set: human CPT1A LC/MS assay, dose response format
Parameter IC50: see the listing below.

Please review the following examples before continuing.
{"compound": "CCCCCc1ccc(CCc2ccc(C(=O)N[C@H](CC(=O)O)C[N+](C)(C)C)o2)cc1 [Example S123, 2,2,2-trifluoroacetate]", "IC50": "≤ 1 µM"}
{"compound": "CCCCCCCCCCOc1cccc(C(=O)N[C@H](CC(=O)[O-])C[N+](C)(C)C)c1", "IC50": "10 to 100 µM"}
{"compound": "CCCCCCOc1cccc(OCCCCCN(C)S(=O)(=O)N[C@H](CC(=O)[O-])C[N+](C)(C)C)c1", "IC50": "≤ 1 µM"}
{"compound": "C[N+](C)(C)C[C@@H](CC(=O)O)NC(=O)c1ccc(CCc2ccsc2)o1 [Example S124, 2,2,2-trifluoroacetate]", "IC50": "≤ 1 µM"}

Inquiry: Please report IC50 with human CPT1A (Homo sapiens, UniProt P50416) for item CCCCCc1ccc(NS(=O)(=O)N[C@H](CC(=O)O)C[N+](C)(C)C)cc1 .
Reply text: ≤ 1 µM

Inquiry: Please report IC50 with human CPT1A (Homo sapiens, UniProt P50416) for item CCOc1ccc(OCc2ccc(C(=O)N[C@H](CC(=O)[O-])C[N+](C)(C)C)o2)cc1 .
Reply text: ≤ 1 µM

Inquiry: Given CCCCCc1ccc(S(=O)(=O)N[C@H](CC(=O)O)C[N+](C)(C)C)cc1 [Example S23, 2,2,2-trifluoroacetate] , report its IC50 on human CPT1A (Homo sapiens, UniProt P50416).
Reply text: 1 to 10 µM

Inquiry: Identify measured IC50 obtained with human CPT1A (Homo sapiens, UniProt P50416) for CN(C(=O)N[C@H](CC(=O)[O-])C[N+](C)(C)C)c1ccc(Oc2ccccc2)cc1 .
Reply text: 100 to 1000 µM

Inquiry: Report IC50 from human CPT1A (Homo sapiens, UniProt P50416) testing of C[N+](C)(C)C[C@@H](CC(=O)[O-])NC(=O)Nc1cccc(-n2cccc2)c1
Reply text: 100 to 1000 µM

Inquiry: System human CPT1A (Homo sapiens, UniProt P50416). Read-out IC50. Item C[N+](C)(C)C[C@@H](CC(=O)O)NC(=O)c1ccc(-c2cccs2)s1 . Report value.
Reply text: 100 to 1000 µM

Inquiry: Report the value of IC50 obtained on human CPT1A (Homo sapiens, UniProt P50416) for Cc1cccc(CCc2ccc(S(=O)(=O)N[C@H](CC(=O)O)C[N+](C)(C)C)s2)c1 [Example S77, 2,2,2-trifluoroacetate] .
Reply text: 10 to 100 µM

Inquiry: Give IC50 for C[N+](C)(C)C[C@@H](CC(=O)[O-])NC(=O)Nc1cc(C(F)(F)F)ccc1Cl tested on human CPT1A (Homo sapiens, UniProt P50416).
Reply text: 1000 to 2500 µM

Inquiry: State the measured IC50 (human CPT1A (Homo sapiens, UniProt P50416)) of CCCCCCCCCCCCCCc1ccc(NS(=O)(=O)N[C@H](CC(=O)O)C[N+](C)(C)C)cc1
Reply text: ≤ 1 µM

Inquiry: Would you please give the reported IC50 of C[N+](C)(C)C[C@@H](CC(=O)O)NC(=O)c1ccc(NS(=O)(=O)c2cccs2)cc1 with human CPT1A (Homo sapiens, UniProt P50416)?
Reply text: 100 to 1000 µM

Inquiry: Find the measured IC50 of C[N+](C)(C)C[C@@H](CC(=O)[O-])NC(=O)c1ccc(CSc2ccc(Cl)cc2)o1 with human CPT1A (Homo sapiens, UniProt P50416) as test system.
Reply text: ≤ 1 µM
